biological target: UniProt:P00742; test: Determination of the factor Xa inhibition (chromogenic substrate); format: biochemical; details: human FXa 0.5 nmol/l, 150 μmol/l Pefachrome FXa, 25° C., extinction at 405 nm
Sequence (P00742 235-488 limits assumed): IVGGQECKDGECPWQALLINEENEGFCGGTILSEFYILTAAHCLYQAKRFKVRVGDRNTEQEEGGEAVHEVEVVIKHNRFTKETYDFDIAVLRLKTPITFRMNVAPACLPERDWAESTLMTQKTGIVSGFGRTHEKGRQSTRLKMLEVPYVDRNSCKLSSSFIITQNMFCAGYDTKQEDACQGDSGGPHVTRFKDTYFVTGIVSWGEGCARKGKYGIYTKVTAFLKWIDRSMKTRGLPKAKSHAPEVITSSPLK
Sequence (P00742 41-179 partner limits assumed): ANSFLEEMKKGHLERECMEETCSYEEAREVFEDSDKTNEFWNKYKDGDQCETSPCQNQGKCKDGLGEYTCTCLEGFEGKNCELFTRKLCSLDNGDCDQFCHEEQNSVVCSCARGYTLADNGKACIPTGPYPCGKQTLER
Consider the following compounds and their measured pIC50 readings.
The quantity pIC50 is defined as the negative base-10 logarithm of the molar concentration.

Reference set (2 entries):
> print(dat)
                                   compound  assay.endpoint  readout.value
1  N=C1OCCCN1c1ccc(N2C[C@H](CNC(=O)c3ccc(Cl)s3)OC2=O)cc1 [Example 5, methanesulfonate]           pIC50           8.51
2  N=C1OCCN1c1ccc(N2C[C@H](CNC(=O)c3ccc(Cl)s3)OC2=O)cc1 [Example 1]           pIC50           8.96

Dear colleague, I am looking for the recorded pIC50 of the following compound: N#CN=C1OCCN1c1ccc(N2C[C@H](CNC(=O)c3ccc(Cl)s3)OC2=O)cc1 [Example 6] 7.80
